target: BTK (Homo sapiens); test: biochemical; settings: read-out: BTK inhibition (%), 0.75 uM BTK, […] probe 3l, 15 min preincubation
Readout: inhibition at 10 µM (%)
Respond with the bare value in %.

Prompt: Lab request: please report inhibition at 10 µM under test system BTK (Homo sapiens) for CCCCC[C@H](O)CC(=O)CCc1ccc(O)c(OC)c1 [PCM-0214961]
Response: 1.6

Prompt: Lab request: please report inhibition at 10 µM under test system BTK (Homo sapiens) for CC1=C[C@@]2(O)O[C@@]3(CC2=C(C)C)[C@@H](C)CC[C@@H]13 [PCM-0214997]
Response: 20.7

Prompt: Lab request: please report inhibition at 10 µM under test system BTK (Homo sapiens) for CC1(C)O[C@@H]2C[C@H]3[C@@H]4CCC5=CC(=O)C=C[C@]5(C)[C@@]4(F)[C@@H](O)C[C@]3(C)[C@]2(C(=O)CO)O1 [PCM-0095180]
Response: 6.9

Prompt: Lab request: please report inhibition at 10 µM under test system BTK (Homo sapiens) for O=c1[nH]cnc2[nH]ncc12 [PCM-0064482]
Response: 18.7

Prompt: Lab request: please report inhibition at 10 µM under test system BTK (Homo sapiens) for C=CC(=O)Nc1cccc(Nc2nc(Nc3ccc(N4CCN(C(C)=O)CC4)cc3OC)ncc2C(F)(F)F)c1 [PCM-0215245]
Response: 95.9

Prompt: Lab request: please report inhibition at 10 µM under test system BTK (Homo sapiens) for CCC[C@H](NC(=O)[C@@H]1[C@H]2CCC[C@H]2CN1C(=O)[C@@H](NC(=O)[C@@H](NC(=O)c1cnccn1)C1CCCCC1)C(C)(C)C)C(=O)C(=O)NC1CC1 [PCM-0214791]
Response: -3.1

----------
biological target: UniProt Q06187; experiment: biochemical; conditions: read-out: BTK inhibition (%), 0.75 uM BTK, […] probe 3l, 15 min preincubation
Each entry below carries its reported inhibition at 10 µM.
Respond with the bare value in %.

Example entries and their recorded answers appear below.
[[record]]
compound = "CC(C)c1cc2c(N3CCN(C4=NCC(C)(C)S4)CC3)ncnc2s1 [PCM-0215379]"
readout = "inhibition at 10 µM"
units_text = "%"
recorded_result = -7.7

[[record]]
compound = "CC/C(=C(\\c1ccc(O)cc1)c1ccc(OCCNC)cc1)c1ccccc1 [PCM-0215485]"
readout = "inhibition at 10 µM"
units_text = "%"
recorded_result = 14.7

[[record]]
compound = "COCCc1ccc(OCC(O)CNC(C)C)cc1 (stereo not drawn) [PCM-0065348]"
readout = "inhibition at 10 µM"
units_text = "%"
recorded_result = 17

[[record]]
compound = "CN(C)CC(=O)Nc1ccc2[nH]c(=O)c3ccccc3c2c1 [PCM-0213810]"
readout = "inhibition at 10 µM"
units_text = "%"
recorded_result = -7.7

[[record]]
compound = "C[C@@H](Nc1nc(N[C@H](C)C(F)(F)F)nc(-c2cccc(Cl)n2)n1)C(F)(F)F [PCM-0215864]"
readout = "inhibition at 10 µM"
units_text = "%"
recorded_result = -3.9


Prompt: Would you kindly share the measured inhibition at 10 µM for Nc1ccccc1NC(=O)c1ccc(CNc2nccc(-c3cccnc3)n2)cc1 [PCM-0094926] ?
Response: 2.8

Prompt: Would you kindly share the measured inhibition at 10 µM for CC(C(=O)O)c1ccc2c(c1)Cc1cccnc1O2 (stereo not drawn) [PCM-0086477] ?
Response: -11.7

Prompt: Would you kindly share the measured inhibition at 10 µM for Nc1cc(F)ccc1NC(=O)/C=C/c1cnn(C/C=C/c2ccccc2)c1 [PCM-0095774] ?
Response: 9.3

Prompt: Would you kindly share the measured inhibition at 10 µM for O=c1cc(-c2ccccc2)oc2cc(O)c(O)c(O)c12 [PCM-0214670] ?
Response: 79.4

Prompt: Would you kindly share the measured inhibition at 10 µM for C[C@H](Oc1ccc(S(C)(=O)=O)cc1C(=O)N1CCN(c2ncc(C(F)(F)F)cc2F)CC1)C(F)(F)F [PCM-0215624] ?
Response: -20.1

Prompt: Would you kindly share the measured inhibition at 10 µM for N[C@@H](C(=O)N[C@@H]1C(=O)N2C(C(=O)O)=C(Cl)CS[C@H]12)c1ccccc1 [PCM-0214861] ?
Response: -13.2

Prompt: Would you kindly share the measured inhibition at 10 µM for O=C1c2cccc(O)c2C(=O)c2c(O)cc(CO)cc21 [PCM-0095288] ?
Response: 16.3

Prompt: Would you kindly share the measured inhibition at 10 µM for Cc1nnc(NS(=O)(=O)c2ccc(N)cc2)s1 [PCM-0086420] ?
Response: -10.9

Prompt: Would you kindly share the measured inhibition at 10 µM for C#C[C@]1(O)CC[C@H]2[C@@H]3CCc4cc(OC5CCCC5)ccc4[C@H]3CC[C@@]21C [PCM-0214893] ?
Response: -8.6

Prompt: Would you kindly share the measured inhibition at 10 µM for COC1[C@@H](O)[C@@H](O)C(O)[C@H](O)[C@H]1O (stereo partly drawn) [PCM-0215037] ?
Response: -11

Prompt: Would you kindly share the measured inhibition at 10 µM for Cc1cc(Cn2cnc3c2C[C@@H](C(=O)O)N(C(=O)C(c2ccccc2)c2ccccc2)C3)ccc1N(C)C [PCM-0215225] ?
Response: 6.2

Prompt: Would you kindly share the measured inhibition at 10 µM for Cc1[nH]nc(C(F)(F)F)c1Cc1sc2c(c1C(=O)N1C[C@](C)(O)CO1)c(=O)n(C)c(=O)n2C(C)C [PCM-0215606] ?
Response: 6.9

Prompt: Would you kindly share the measured inhibition at 10 µM for Clc1ccc(C(c2c[nH]c3ccccc23)c2c[nH]c3ccccc23)cc1 [PCM-0215640] ?
Response: 71.7

----------
target: BTK (Homo sapiens, UniProt Q06187); assay: biochemical; conditions: read-out: BTK inhibition (%), 0.75 uM BTK, […] probe 3l, 15 min preincubation
Sequence (Q06187 402-655 limits assumed): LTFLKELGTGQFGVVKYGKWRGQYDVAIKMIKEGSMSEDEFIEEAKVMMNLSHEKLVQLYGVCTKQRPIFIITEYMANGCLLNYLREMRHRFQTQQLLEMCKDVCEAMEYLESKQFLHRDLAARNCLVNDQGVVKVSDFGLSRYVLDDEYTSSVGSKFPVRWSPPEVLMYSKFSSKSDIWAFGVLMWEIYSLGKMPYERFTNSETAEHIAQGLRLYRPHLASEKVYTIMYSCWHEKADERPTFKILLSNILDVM
Readout: inhibition at 10 µM (%)
Respond with the bare value in %.

Example entries and their recorded answers appear below.
[[record]]
compound = "CCCN(CCC)CCc1cccc2c1CC(=O)N2 [PCM-0065591]"
recorded_result = -18.7

[[record]]
compound = "O=c1c(-c2ccc(O)cc2)coc2cc(O[C@@H]3O[C@H](CO)[C@@H](O)[C@H](O)[C@H]3O)ccc12 [PCM-0214779]"
recorded_result = 10.9

[[record]]
compound = "C=C[C@]1(C)C[C@@H](OC(=O)CSC2C[C@H]3CC[C@@H](C2)N3C)[C@]2(C)[C@H](C)CC[C@]3(CCC(=O)[C@H]32)[C@@H](C)[C@@H]1O (stereo partly shown) [PCM-0095603]"
recorded_result = 3.9


Prompt: Lab request: please report inhibition at 10 µM under test system BTK (Homo sapiens, UniProt Q06187) for COc1cc2c(Nc3ccc(NC(=O)c4ccccc4)cc3)ncnc2cc1OCCCN1CCOCC1 [PCM-0094881]
Response: 77.9

Prompt: Lab request: please report inhibition at 10 µM under test system BTK (Homo sapiens, UniProt Q06187) for O=C(O)[C@H](O)c1ccccc1 [PCM-0216338]
Response: -10

Prompt: Lab request: please report inhibition at 10 µM under test system BTK (Homo sapiens, UniProt Q06187) for O=C1NC(=O)[C@@H](c2cn3c4c(cccc24)CCC3)[C@@H]1c1c[nH]c2ccccc12 [PCM-0095697]
Response: 29

----------
target: BTK (Homo sapiens, UniProt Q06187); test: biochemical; conditions: read-out: BTK inhibition (%), 0.75 uM BTK, […] probe 3l, 15 min preincubation
Readout: inhibition at 10 µM (%)
Respond with the bare value in %.

Prompt: Would you kindly share the measured inhibition at 10 µM for COCCCOc1ccnc(C[S+]([O-])c2nc3ccccc3[nH]2)c1C (centres unmarked) ?
Response: -10.1

Prompt: Would you kindly share the measured inhibition at 10 µM for C=CC(=O)N1CC/C(=C\c2ccc(F)c([N+](=O)[O-])c2)C(=O)/C(=C/c2ccc(F)c([N+](=O)[O-])c2)C1 ?
Response: 31.7

----------
target: wild-type BTK (Homo sapiens, UniProt Q06187); experiment: In vitro kinase activity assay (Nanosyn); settings: BTK IC50, rounded; 2 h preincubation, 5 μM ATP
Sequence (Q06187 whole entry): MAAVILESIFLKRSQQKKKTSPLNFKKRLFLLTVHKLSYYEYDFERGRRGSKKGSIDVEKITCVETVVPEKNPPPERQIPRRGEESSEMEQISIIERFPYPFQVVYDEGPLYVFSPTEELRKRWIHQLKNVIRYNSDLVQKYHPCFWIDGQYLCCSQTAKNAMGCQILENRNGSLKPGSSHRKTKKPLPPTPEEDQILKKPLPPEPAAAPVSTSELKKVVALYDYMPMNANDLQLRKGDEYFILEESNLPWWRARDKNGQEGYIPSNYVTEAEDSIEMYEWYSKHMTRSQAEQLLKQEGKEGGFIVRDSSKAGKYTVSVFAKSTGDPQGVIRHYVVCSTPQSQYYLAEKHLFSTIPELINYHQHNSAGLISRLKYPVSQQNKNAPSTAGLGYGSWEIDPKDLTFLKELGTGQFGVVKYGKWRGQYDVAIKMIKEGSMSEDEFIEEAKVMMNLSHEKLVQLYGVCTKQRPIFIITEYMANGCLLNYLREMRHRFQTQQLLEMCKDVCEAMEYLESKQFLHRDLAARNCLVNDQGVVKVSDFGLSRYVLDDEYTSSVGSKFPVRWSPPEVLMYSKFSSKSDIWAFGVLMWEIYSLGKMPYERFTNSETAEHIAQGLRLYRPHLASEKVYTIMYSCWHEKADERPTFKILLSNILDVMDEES
Each entry below carries its reported IC50.
Respond with the bare value in pM.

Prompt: Would you kindly share the measured IC50 for C=C(CNCc1ccccc1)C(=O)N1CCC[C@@H](n2nc(-c3ccc(Oc4ccccc4)cc3)c3c(N)ncnc32)C1 ?
Response: 100

Prompt: Would you kindly share the measured IC50 for C=C(COC(C)=O)C(=O)N1CCC[C@@H](n2nc(-c3ccc(Oc4ccccc4)cc3)c3c(N)ncnc32)C1 ?
Response: 100

Prompt: Would you kindly share the measured IC50 for C=C(CN1CCCCC1)C(=O)N1CCC[C@@H](n2nc(-c3ccc(Oc4ccccc4)cc3)c3c(N)ncnc32)C1 ?
Response: 100
